test details: Inhibition of Hepatitis C virus full-length NS3/4A protease assessed as quenched-fluorogenic RET-S1 substrate cleavage incubated for 10 mins prior to substrate addition by FRET analysis
Set-up: species or system Hepacivirus hominis
measured metric: log10 IC50 (log10 of the value in nM)
All values: base-10 log of IC50 in nM.

Below: 5 compounds and their reported log10 IC50.
structure as smiles: CN1CCN(S(=O)(=O)NC(=O)[C@@]23C[C@H]2/C=C\CCCCC[C@H](NC(=O)OC(C)(C)C)C(=O)N2C[C@H](OC(=O)N4Cc5ccccc5C4)C[C@H]2C(=O)N3)CC1
number: 1.23
//
structure as smiles: O=C(N[C@H]1CCCCC/C=C\[C@@H]2C[C@@]2(C(=O)NS(=O)(=O)C2CC2)NC(=O)[C@@H]2C[C@@H](OC(=O)N3Cc4ccccc4C3)CN2C1=O)OC1CCOCC1
number: 0.34
//
structure as smiles: COc1ccc2c(c1)CN(C(=O)O[C@@H]1C[C@H]3C(=O)N[C@]4(C(=O)NS(=O)(=O)C5CC5)C[C@H]4/C=C\CCCCC[C@H](NC(=O)OC(C)(C)C)C(=O)N3C1)C2
number: 0.36
//
structure as smiles: CC(C)(C)OC(=O)N[C@H]1CCCCC/C=C\[C@@H]2C[C@@]2(C(=O)NS(=O)(=O)C2CC2)NC(=O)[C@@H]2C[C@@H](OC(=O)N3Cc4c(F)ccc(F)c4C3)CN2C1=O
number: -0.15
//
structure as smiles: O=C(CCC(F)(F)F)N[C@H]1CCCCC/C=C\[C@@H]2C[C@@]2(C(=O)NS(=O)(=O)C2CC2)NC(=O)[C@@H]2C[C@@H](OC(=O)N3Cc4ccccc4C3)CN2C1=O
number: -0.22

Prompt line: Given the entry CC(C)(C)OC(=O)N[C@H]1CCN(CC(F)(F)F)CC/C=C\[C@@H]2C[C@@]2(C(=O)NS(=O)(=O)C2CC2)NC(=O)[C@@H]2C[C@@H](OC(=O)N3Cc4cccc(F)c4C3)CN2C1=O , report its measured log10 IC50.
Response line: 0.26

Prompt line: Returns the measured log10 IC50 for the input compound. Input: CN1CC/C=C\[C@@H]2C[C@@]2(C(=O)NS(=O)(=O)C2CC2)NC(=O)[C@@H]2C[C@@H](OC(=O)N3Cc4cccc(F)c4C3)CN2C(=O)[C@@H](NC(=O)OC(C)(C)C)CC1
Response line: 0.85

Prompt line: Given the entry CC(C)(C)OC(=O)N[C@H]1CCCCC/C=C\[C@@H]2C[C@@]2(C(=O)NS(=O)(=O)c2ccc(Cl)s2)NC(=O)[C@@H]2C[C@@H](OC(=O)N3Cc4ccccc4C3)CN2C1=O , report its measured log10 IC50.
Response line: 0.66

Prompt line: Recorded log10 IC50 for CC(C)(C)OC(=O)N[C@H]1CCCCC/C=C\[C@@H]2C[C@@]2(C(=O)O)NC(=O)[C@@H]2C[C@@H](OC(=O)N3CCc4ccccc4C3)CN2C1=O , please?
Response line: 2.25

Prompt line: Reported log10 IC50, compound N[C@H]1CCCCC/C=C\[C@@H]2C[C@@]2(C(=O)NS(=O)(=O)C2CC2)NC(=O)[C@@H]2C[C@@H](OC(=O)N3Cc4cccc(Cl)c4C3)CN2C1=O : ____
Response line: 0.48

Prompt line: // lookup log10 IC50 for CC(C)(C)OC(=O)N[C@H]1CCCCC/C=C\[C@@H]2C[C@@]2(C(=O)NS(=O)(=O)N2CCOCC2)NC(=O)[C@@H]2C[C@@H](OC(=O)N3Cc4ccccc4C3)CN2C1=O
Response line: 0.64
